Task for the reader: assign each of the following compounds its reported Inhibition in vitro OXO BINDING IC50.
- TEST TARGET: muscarinic acetylcholine receptors
- PROTOCOL SUMMARY: Inhibition of specific binding of 3H-Oxotremorine-M (OXO BINDING) in vitro, rat cortex
- Set-up: species or system male Wistar rats
- STUDY CONDITIONS: rat cortex homogenate, 3H-Oxotremorine 1.0 nM, 30 min at 25° C., pH 7.4
Where a name gives a salt, the structure may show the parent alone.
Report the figure in ng/mL without appending any unit label.

stdin: Any idea what its Inhibition in vitro OXO BINDING IC50 is? The compound is COc1nsnc1[C@@H]1CN2CCC[C@@H]1C2 (relative stereo)
stdout: 2.0

stdin: // next record O=C(O)/C=C/C(=O)O.c1ccc(OCCSc2nsnc2C2CN3CCC2CC3)cc1 (centres unmarked)
stdout: 1.52

stdin: Now consider CCCCCOc1nsnc1[C@@H]1CN2CCC[C@@H]1C2 (relative stereo) and answer again.
stdout: 0.32

stdin: What do you get for COc1nsnc1C1=C(Cl)C2CCCN(C1)C2.O=C(O)C(=O)O (centres unmarked) ?
stdout: 8.2

stdin: Also check c1ccc(OCCSc2nsnc2[C@H]2CN3CCC[C@H]2C3)cc1 (relative stereo)
stdout: 0.45

stdin: Again, but for C=CCCCCSc1nsnc1[C@H]1CN2CCC[C@@H]1C2 (relative stereo)
stdout: 7.5

stdin: Next compound up: CCCCSc1nsnc1C1CN2CCC1CC2.O=C(O)C(O)C(O)C(=O)O (single isomer, unassigned)
stdout: 0.14

stdin: Note, next up: CCCCCOc1nsnc1C1=C(Cl)C2CCCN(C1)C2 (centres unmarked)
stdout: 8.2

stdin: Now consider CCCCCCSc1nsnc1[C@H]1CN2CC[C@H]1C2 (relative stereo) .
stdout: 0.52

stdin: And then CCCSc1nsnc1[C@@H]1CN2CCC[C@@H]1C2 (single isomer, unassigned) [Compound 113] , what is it?
stdout: 0.26

stdin: CCCCCSc1nsnc1[C@@H]1CN2CC[C@H]1C2 (relative stereo) ?
stdout: 6.4

stdin: And the next one, Cc1nnc(SCCCCSc2nsnc2C2CN3CCC2CC3)s1 (centres unmarked) [Compound 107, oxalate] ?
stdout: 0.3

stdin: For CCCCCCOc1nsnc1C1CN2CCC1CC2.O=C(O)/C=C/C(=O)O (centres unmarked) then?
stdout: 1.2

stdin: How about CCCSc1nsnc1[C@H]1CN2CCC[C@@H]1C2 (relative stereo) ?
stdout: 4.6

stdin: Now the compound O=C(O)/C=C/C(=O)O.c1ccc(CCCSc2nsnc2C2CN3CCC2CC3)cc1 (centres unmarked)
stdout: 4.7

stdin: // next record CCCCSc1nsnc1C1CN2CCC1CC2.O=C(O)/C=C/C(=O)O (centres unmarked)
stdout: 0.65

stdin: Likewise for CCCCSc1nsnc1[C@H]1CN2CCC[C@H]1C2 (relative stereo) ?
stdout: 0.13
